Origin of the recorded values: the supplement of paper PMC9170038

System: MS2 coat protein
assay: apparent KD of MS2 coat protein; designed switch direction (-1 OFF switch, 1 ON switch): 1; higher = weaker reporter binding
assay_setup: Eterna round: R95; input ligand: FMN 200 uM
Please provide measured apparent KD of MS2 coat protein for the entries that follow.
Numbers only, in nM.

input_sequence	result_unit	apparent KD of MS2 coat protein
AGUCCAGCAUGAGCUGGACAAAAGCAUGUACAUGAGGAUCACCCAUGUUCAUGUACAAGCUUUUUGCUCGUCAAAAG [Mat - hsa-mir-208a - Mod of JL - 70] (puzzle: Sensor for hsa-mir-208a)	nM	225
UAGUACAUGCUUUUUGUCUGUCUUAGAUCACAUGAGGAUCACCCAUGUUUGGUGAAAGUUAUUUUGUUUAUGACUAU [JR_SHM208A_Sub060] (puzzle: Sensor for hsa-mir-208a)	nM	257
GCCCAUAGUAUAUGGGUACAAGCUUUUUAACAUGAGGAUCACCCAUGUACUCGUCUUAUGUGCAGUCCGUAGACUGC [JL-shm-2.17 Brourd mod] (puzzle: Sensor for hsa-mir-208a)	nM	86.4
AGAGAGGAAGCUGAGGAUAUCGUAAGGAGGACAUGAGGAUCACCCAUGUGUGUGGAAUUGGAGGACGAGAAGGCAGAGGAGUGGG [JR_SS2_Sub055] (puzzle: Same State 2)	nM	33
AAGUUAAGCUUUUUGUUCUGCCUAUUCUAACAUGAGGAUCACCCAUGUAGUCAGACGACUGCGUGUGUAGUUGAGAU [JR_SHM208A_Sub029] (puzzle: Sensor for hsa-mir-208a)	nM	121
UACAAUCUAUCUGAGGAUAUCAUGAACAAAACAUGAGGAUCACCCAUGUGCAGGAAAACUGCAUAUGAGAAGGCAGAUAGAUUGU [Mat - Same State 2 - Mod - D22] (puzzle: Same State 2)	nM	51

Then there is this sequence:
Qu. GET /values?readout=apparent KD of MS2 coat protein&item= GAGUAGGACUUACAGGAUAUAUGGAGGUUGACAUGAGGAUCACCCAUGUCUGAGUUGAGAGGAGGAUAGAAGGGUAUGGGAGGCG [JR_SS2_Sub030] (puzzle: Same State 2)
Ans. 23.4
